# assayed.target: T1, TNFR1 (Homo sapiens, UniProt P19438)
# T1 chain: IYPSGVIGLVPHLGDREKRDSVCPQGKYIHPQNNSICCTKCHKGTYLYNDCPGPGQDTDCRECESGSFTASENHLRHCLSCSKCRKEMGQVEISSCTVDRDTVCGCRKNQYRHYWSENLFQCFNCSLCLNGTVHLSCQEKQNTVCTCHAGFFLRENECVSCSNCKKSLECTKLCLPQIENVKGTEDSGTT
# assay.summary: yeast display SC50
outcome.measure: apparent Kd (screen)
Your reply should be a number followed by the unit it is expressed in.

Fill in apparent Kd (screen) for record E14I (designed binder) SMEEEVEKAAKEYIKKKKEAIEKHLEKLKAKDKEAAERFLKELEEAAKEYAKDEAKTMSEEEAKRRAKKYKEKVLLSELSEEEQKEIKEAEEKLVRTILKYVEEAAK
5.84 nM

Fill in apparent Kd (screen) for record E26A (designed binder) SMEEEVEKAAKEYEKKKKEAIEKHLAKLKAKDKEAAERFLKELEEAAKEYAKDEAKTMSEEEAKRRAKKYKEKVLLSELSEEEQKEIKEAEEKLVRTILKYVEEAAK
1.05 nM

Fill in apparent Kd (screen) for record E45H (designed binder) SMEEEVEKAAKEYEKKKKEAIEKHLEKLKAKDKEAAERFLKELEHAAKEYAKDEAKTMSEEEAKRRAKKYKEKVLLSELSEEEQKEIKEAEEKLVRTILKYVEEAAK
3.3 nM

Fill in apparent Kd (screen) for record K69W (designed binder) SMEEEVEKAAKEYEKKKKEAIEKHLEKLKAKDKEAAERFLKELEEAAKEYAKDEAKTMSEEEAKRRAKWYKEKVLLSELSEEEQKEIKEAEEKLVRTILKYVEEAAK
11.4 nM

Fill in apparent Kd (screen) for record R96N (designed binder) SMEEEVEKAAKEYEKKKKEAIEKHLEKLKAKDKEAAERFLKELEEAAKEYAKDEAKTMSEEEAKRRAKKYKEKVLLSELSEEEQKEIKEAEEKLVNTILKYVEEAAK
3 nM

Fill in apparent Kd (screen) for record K29A (designed binder) SMEEEVEKAAKEYEKKKKEAIEKHLEKLAAKDKEAAERFLKELEEAAKEYAKDEAKTMSEEEAKRRAKKYKEKVLLSELSEEEQKEIKEAEEKLVRTILKYVEEAAK
0.446 nM

Fill in apparent Kd (screen) for record K8I (designed binder) SMEEEVEIAAKEYEKKKKEAIEKHLEKLKAKDKEAAERFLKELEEAAKEYAKDEAKTMSEEEAKRRAKKYKEKVLLSELSEEEQKEIKEAEEKLVRTILKYVEEAAK
1.05 nM
